# measured.target: T1, human MSLN-hFc protein (Acro, Cat. No. MSN-H5253) (human, UniProt Q13421 296-580)
# T1 construct: the method names the coated protein as human MSLN-hFc (Acro); also called human MSLN full-length protein
# T1 sequence (Q13421 other isoform, or with tags, fused parts or gaps limits assumed): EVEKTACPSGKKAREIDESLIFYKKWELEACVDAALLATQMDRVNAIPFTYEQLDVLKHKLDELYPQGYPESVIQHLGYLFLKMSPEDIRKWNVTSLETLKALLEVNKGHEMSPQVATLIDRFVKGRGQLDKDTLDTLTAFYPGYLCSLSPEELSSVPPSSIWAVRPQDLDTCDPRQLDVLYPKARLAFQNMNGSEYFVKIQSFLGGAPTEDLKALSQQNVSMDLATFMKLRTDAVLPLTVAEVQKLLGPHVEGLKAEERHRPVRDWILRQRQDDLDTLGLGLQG
# assay.remarks: ELISA on coated antigen, antibody 0.001 nM
parameter: OD450 (OD450)

F7.33.24-H11 (scFv, not shown: small tags and cut ends, also called S009-F7.33.24 humanized antibody VH2a + VL2) scFv: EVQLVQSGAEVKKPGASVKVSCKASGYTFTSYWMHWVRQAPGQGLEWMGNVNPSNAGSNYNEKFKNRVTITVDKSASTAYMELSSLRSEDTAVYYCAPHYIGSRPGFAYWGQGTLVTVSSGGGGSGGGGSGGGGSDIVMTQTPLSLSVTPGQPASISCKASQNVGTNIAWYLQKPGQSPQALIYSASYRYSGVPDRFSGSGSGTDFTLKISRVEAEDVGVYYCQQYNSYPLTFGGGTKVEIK : 0.04
F7.33.24-H10 (scFv, not shown: small tags and cut ends, also called S009-F7.33.24 humanized antibody VH2a + VL1) scFv: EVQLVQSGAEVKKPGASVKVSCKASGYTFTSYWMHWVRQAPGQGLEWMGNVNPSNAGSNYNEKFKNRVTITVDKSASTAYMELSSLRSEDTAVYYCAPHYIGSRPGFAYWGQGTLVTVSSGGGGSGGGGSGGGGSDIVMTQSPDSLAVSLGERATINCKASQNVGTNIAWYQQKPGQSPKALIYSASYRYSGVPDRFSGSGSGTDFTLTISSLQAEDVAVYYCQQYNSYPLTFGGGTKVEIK : 0.04
F7.33.24-H3 (scFv, not shown: small tags and cut ends, also called S009-F7.33.24 humanized antibody VH1 + VL3) scFv: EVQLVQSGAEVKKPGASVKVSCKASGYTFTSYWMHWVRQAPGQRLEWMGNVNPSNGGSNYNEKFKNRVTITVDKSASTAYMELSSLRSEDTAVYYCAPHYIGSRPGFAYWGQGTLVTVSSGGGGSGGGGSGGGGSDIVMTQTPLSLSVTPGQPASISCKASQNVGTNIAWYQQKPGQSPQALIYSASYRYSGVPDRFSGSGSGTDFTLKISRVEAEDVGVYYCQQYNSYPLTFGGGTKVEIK : 0.05
F7.33.24-H1 (scFv, not shown: small tags and cut ends, also called S009-F7.33.24 humanized antibody VH1 + VL1) scFv: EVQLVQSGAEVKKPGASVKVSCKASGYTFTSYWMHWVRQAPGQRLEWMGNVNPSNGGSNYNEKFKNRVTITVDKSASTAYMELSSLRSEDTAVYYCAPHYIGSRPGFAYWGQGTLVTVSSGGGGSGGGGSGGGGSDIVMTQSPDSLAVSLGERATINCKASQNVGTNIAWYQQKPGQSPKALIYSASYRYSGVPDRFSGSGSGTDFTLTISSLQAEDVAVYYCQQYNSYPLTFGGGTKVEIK : 0.04

Values were extracted from patent US20250250357A1.
